Molecular target: TRPML1 (Homo sapiens)
Construct: expressed in transfected cells
Sequence (Q9GZU1 whole entry): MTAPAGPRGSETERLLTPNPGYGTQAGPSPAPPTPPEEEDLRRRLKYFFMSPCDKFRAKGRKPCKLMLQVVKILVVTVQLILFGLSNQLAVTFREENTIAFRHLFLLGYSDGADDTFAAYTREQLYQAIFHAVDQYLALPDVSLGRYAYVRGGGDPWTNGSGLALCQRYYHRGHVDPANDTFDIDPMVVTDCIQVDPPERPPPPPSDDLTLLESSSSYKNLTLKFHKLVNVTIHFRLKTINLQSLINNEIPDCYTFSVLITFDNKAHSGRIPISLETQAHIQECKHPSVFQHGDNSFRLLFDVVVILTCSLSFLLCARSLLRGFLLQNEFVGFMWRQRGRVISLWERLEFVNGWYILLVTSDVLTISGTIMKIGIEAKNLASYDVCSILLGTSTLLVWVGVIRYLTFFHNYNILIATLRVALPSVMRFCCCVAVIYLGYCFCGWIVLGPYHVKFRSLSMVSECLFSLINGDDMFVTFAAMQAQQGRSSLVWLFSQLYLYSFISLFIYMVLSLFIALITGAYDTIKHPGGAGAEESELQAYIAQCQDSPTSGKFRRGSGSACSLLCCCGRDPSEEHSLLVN
Assay: TRPML1 automated patch-clamp (QPatch 16X)
Format: cell-based
Conditions: 3.0 μM compound; HEK T-REx/GcaMP6f/TRPML1 cells; current with compound/current in vehicle; extracellular pH 4.6
Procedure: TRPML1—Automated Patch-Clamp […] Agonists: For data collection, the Sophion proprietary software was used and the analysis was performed off-line using Excel and GraphPad Prism (V 8.00). Results are reported in Table 6, expressed as TRPML1 current fold increase evoked by the compound under investigation (i.e. current in the presence of the compound/current in vehicle).
Here, each record is paired with measured Qpatch Assay TRPML1 agonism Current fold increase Mean ± SEM (n) data.

Here is how some compounds turned out for Qpatch Assay TRPML1 agonism Current fold increase Mean ± SEM (n).
# COMPOUND, RESULT
measured = [
    ("CN(C)S(=O)(=O)c1ccc(S(=O)(=O)NC2CCCCC2N2CCC(Oc3ccccc3)CC2)cc1 (single isomer, unassigned) [Example 63]", "0.86 ± 0.60 (2)"),
    ("CN(C)S(=O)(=O)c1ccc(S(=O)(=O)Nc2ccccc2N2CCN(C(=O)OCC(F)(F)F)CC2)cc1", "88.3 ± 59.9 (3)"),
    ("COC(=O)N1CCN(c2ccccc2NS(=O)(=O)c2ccc(S(=O)(=O)N(C)C)cc2)CC1", "10.4 ± 3.8 (3)"),
]

Asked: Return reported Qpatch Assay TRPML1 agonism Current fold increase Mean ± SEM (n); argument: COc1ccc(S(=O)(=O)Nc2ccccc2N2CCN(C(=O)OC(C)(C)C)CC2)cc1
Given back: 32.9 ± 3.5 (2)

Asked: Return reported Qpatch Assay TRPML1 agonism Current fold increase Mean ± SEM (n); argument: CN(C)S(=O)(=O)c1ccc(S(=O)(=O)Nc2ccccc2N2CCCCCC2)cc1
Given back: 206 ± 167 (2)

Asked: Return reported Qpatch Assay TRPML1 agonism Current fold increase Mean ± SEM (n); argument: CN(C)S(=O)(=O)c1ccc(S(=O)(=O)NC2CCCCC2N2CCC(Oc3ccccc3)CC2)cc1 (racemic) [Example 57]
Given back: 0.86 ± 0.68 (2)

Asked: Return reported Qpatch Assay TRPML1 agonism Current fold increase Mean ± SEM (n); argument: CN(C)S(=O)(=O)c1ccc(S(=O)(=O)Nc2ccccc2N2CCCCC2)cc1
Given back: 32.7 ± 8.9 (3)

----------
Target: UniProt Q9GZU1
Assay: Cellular TRPML1 assay (FLIPR TETRA, GCaMP6f calcium read-out)
Details: HEK T-REx/GCaMP6f/TRPML1 cells; Ca2+ response over 300 s, normalized to ML-SA1 50 μM; Ca2+ free or Optimem condition not given; read-out: Ec50 (Activity of TRPML1 agonists)
pEC50: −log10 of the molar value.
PROPERTY: pEC50

# COMPOUND, SYSTEM, pEC50
rows = [
    ("CN(C)S(=O)(=O)c1ccc(S(=O)(=O)Nc2ccccc2N2CCCCC2)cc1", "UniProt Q9GZU1", 5.77),
    ("CN(C)S(=O)(=O)c1ccc(S(=O)(=O)Nc2ccccc2N2CCN(C(=O)Cc3cccs3)CC2)cc1", "UniProt Q9GZU1", 4.95),
    ("CC(C)c1ccc(S(=O)(=O)Nc2ccccc2N2CCN(C(=O)OC(C)(C)C)CC2)cc1", "UniProt Q9GZU1", 5.54),
    ("CN(C)S(=O)(=O)c1ccc(S(=O)(=O)Nc2ccccc2N2CCC(C(=O)OC(C)(C)C)CC2)cc1", "UniProt Q9GZU1", 5.89),
    ("Cc1cc(S(=O)(=O)Nc2ccccc2N2CCC(Oc3ccccn3)CC2)c(C)s1", "UniProt Q9GZU1", 5.55),
    ("CN(C(=O)c1ccc(S(=O)(=O)N(C)C)cc1)c1ccccc1N1CCC(Oc2ccccn2)CC1", "UniProt Q9GZU1", 5.08),
    ("CN(C)c1ccc(S(=O)(=O)Nc2ccccc2N2CCCCC2)cc1", "UniProt Q9GZU1", 4.23),
    ("Cc1cc(C)cc(S(=O)(=O)Nc2ccccc2N2CCN(C(=O)OC(C)(C)C)CC2)c1", "UniProt Q9GZU1", 4.70),
]

(I) CCc1ccc(S(=O)(=O)Nc2ccccc2N2CC3CCC2C3)s1 (stereo not shown)
(II) CN(C)S(=O)(=O)c1ccc(S(=O)(=O)Nc2ccccc2N2CCC(F)(F)CC2)cc1
(III) CN(C)S(=O)(=O)c1ccc(S(=O)(=O)NC2CCCCC2N2CCOCC2)cc1 (stereo not shown)
(IV) CN(C)S(=O)(=O)c1ccc(S(=O)(=O)Nc2ccccc2N2CCN(C(=O)OCC(F)(F)F)CC2)cc1
Asked: Reorder the items by pEC50, least to greatest. I'd appreciate it if you listed the labels in the requested order.
Given back: III, I, II, IV

The measured values listed here are drawn from patent US20230010299A1.
